# TEST_SYSTEM: T1, mouse CNPase catalytic domain (mouse, UniProt P16330)
# T1 construct: 2′,3′-cyclic nucleotide 3′-phosphodiesterase (CNPase), mouse, catalytic (C-terminal phosphodiesterase) domain; As used in ITC, crystallisation and SEC-SAXS; also called mCNPase catalytic domain; C-terminal phosphodiesterase domain; source: E. coli Rosetta (DE3), pTH27 vector, autoinduction, purified (SEC)
# T1 sequence (P16330 179-398): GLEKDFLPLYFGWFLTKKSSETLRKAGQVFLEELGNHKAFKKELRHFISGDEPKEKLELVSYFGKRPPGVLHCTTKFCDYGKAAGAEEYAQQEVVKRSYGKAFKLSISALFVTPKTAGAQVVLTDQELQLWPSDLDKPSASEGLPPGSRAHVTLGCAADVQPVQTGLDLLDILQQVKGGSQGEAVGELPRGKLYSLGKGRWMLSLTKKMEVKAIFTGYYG
# ASSAY_NOTES: ITC; 8.5–11 μM CNPase catalytic domain in the cell, 88–95 μM Nb in the syringe; 20 mM HEPES, 150 mM NaCl, 0.5 mM TCEP, pH 7.5; +25°C; 1:1 binding model; single experiments
# TEST_CONTEXT: both partners purified
MEASURED_METRIC: dH (kcal/mol)
Numbers only here, please. The scale is kcal/mol.

Solved entries (count: 3):
- BINDER: "anti-CNPase nanobody NbCNP 7E (VHH, source: E. coli Shuffle T7, His6-MaBP fusion (pHMGWA), purified (NiNTA, TEV, reverse NiNTA, SEC); not shown: His6, N-terminal, cleaved) VHH: EVQLEESGGGWVHPGGSLRLSCAASGNVFGVNTMAWYRQAPGKQREQRELVASITDYGTTEYADSVKGRFTISGDNAKATVYLQMNSLKPEDTAVYYCNMDLTVMTATSSLYAYDYWGQGTQVTVSS"
  QUANTITY_UNIT: "kcal/mol"
  dH: -14.2
- BINDER: "anti-CNPase nanobody NbCNP 10E (VHH, Purified as described for anti-Arc Nbs (Markusson et al., 2022); source: E. coli, pTH27 vector, purified (SEC, TEV, reverse NiNTA, SEC); not shown: His6, N-terminal, cleaved) VHH: EVQLEESGGGLVQPGGSLRLSCAVSGITLDDFGIGWFRQAPGKEREGVACISPGYEHIYYADSAKGRFTISRDNAKNTVYLQMNNLKPWDTGVYYCAADNDLPDRLWGGSDWSDPSPYDYWGQGTQVTVSS"
  QUANTITY_UNIT: "kcal/mol"
  dH: -12.1
- BINDER: "anti-CNPase nanobody NbCNP 8C (VHH, Extra disulphide between CDR2 and CDR3; source: E. coli Shuffle T7, His6-MaBP fusion (pHMGWA), purified (NiNTA, TEV, reverse NiNTA, SEC); not shown: His6, N-terminal, cleaved) VHH: EVQLEESGGGLVQAGGSLTLSCAASGFTFDDYAMGWYRQAPGKERVGVSCISRTDGYTYYLDSVKGRFTISTDHAKHTVYLQMNNLKPDDTGLYYCAADADPEYGSRCPDPYYGMDYWGKGILVTVSS"
  QUANTITY_UNIT: "kcal/mol"
  dH: -7.07

With those in mind, consider the next binder.
[in] Please give the measured dH for this binder: MaBP-10E (His6-maltose-binding protein fusion of NbCNP 10E) (VHH, as the VHH of m9; source: E. coli Shuffle T7, pHMGWA vector, purified; not shown: His6, N-terminal, kept) VHH: EVQLEESGGGLVQPGGSLRLSCAVSGITLDDFGIGWFRQAPGKEREGVACISPGYEHIYYADSAKGRFTISRDNAKNTVYLQMNNLKPWDTGVYYCAADNDLPDRLWGGSDWSDPSPYDYWGQGTQVTVSS
[out] -18.1
